assay.comment: logP determination by retention times (calibration with alkan-2-ones)
# chromatographic logP per entry
Number only, please.

| sample.smiles | chromatographic logP |
| --- | --- |
| COCc1nc(C)c(-c2ccnc(Nc3cccc(OC)c3)n2)s1 | 2.67 |
| Cc1nc(C(C)C)sc1-c1ccnc(Nc2ccc(N(C)C)c(Cl)c2)n1 | 2.72 |
| CCc1nc(C)c(-c2ccnc(Nc3ccc4c(c3)OCCO4)n2)s1 | 2.7 |
| Cc1nc(C)c(-c2ccnc(Nc3ccccc3)n2)s1 | 2.4 |

Please examine the following record next.
Request: Bench note: what chromatographic logP did `Cc1nc(C)c(-c2ccnc(Nc3cccc(O)c3)n2)s1` show?
Response: 1.84

---

assay.comment: logP determination by retention times (calibration with alkan-2-ones)
experimental.setup: logP, values marked *: HPLC on reversed-phase C 18, 40° C., mobile phase 0.1% aqueous formic acid and acetonitrile, linear gradient 10% to 95% acetonitrile
Reported chromatographic logP maps to class as: c1 (below 2), c2 (2 to below 3), c3 (3 or more)

Request: Using the reported chromatographic logP, which band applies to `COc1cc(Nc2ncc(Br)c(-c3sc(C(C)C)nc3C)n2)cc(OC)c1OC` ?
Response: c3

Request: Using the reported chromatographic logP, which band applies to `COCCCNc1nc(C)c(-c2ccnc(Nc3cccc(NC(C)=O)c3)n2)s1` ?
Response: c1

---

assay.comment: logP determination by retention times (calibration with alkan-2-ones)
experimental.setup: logP, values marked *: HPLC on reversed-phase C 18, 40° C., mobile phase 0.1% aqueous formic acid and acetonitrile, linear gradient 10% to 95% acetonitrile
measurement.label: chromatographic logP
Number only, please.

Here's what some known entries look like.
| compound | value.observed |
| --- | --- |
| CCc1nc(C)c(-c2ccnc(Nc3cccc(N(C)C)c3)n2)s1 | 1.99 |
| COCCNc1nc(C)c(-c2ccnc(Nc3ccc(F)cc3F)n2)s1 | 1.99 |

Request: Bench note: what chromatographic logP did `COCCCNc1nc(C)c(-c2ccnc(Nc3ccc(F)c(C)c3)n2)s1` show?
Response: 2.11

Request: Bench note: what chromatographic logP did `COCCOc1nc(C)c(-c2ccnc(Nc3ccc(C(C)=O)cc3)n2)s1` show?
Response: 2.58

Request: Bench note: what chromatographic logP did COc1ccc(Nc2nccc(-c3sc(NCC4CCCO4)nc3C)n2)cc1OC (centres unmarked) show?
Response: 1.65

---

assay.comment: logP determination by retention times (calibration with alkan-2-ones)
experimental.setup: logP, values marked *: HPLC on reversed-phase C 18, 40° C., mobile phase 0.1% aqueous formic acid and acetonitrile, linear gradient 10% to 95% acetonitrile
# chromatographic logP per entry
Number only, please.

| compound | measurement.label | value.observed |
| --- | --- | --- |
| CCc1nc(C)c(-c2ccnc(Nc3ccc(N(C)C)cc3)n2)s1 [Example 879] | chromatographic logP | 1.56 |

Request: Bench note: what chromatographic logP did Cc1nc(C(C)(C)C)sc1-c1ccnc(Nc2ccccc2)n1 [Example 882] show?
Response: 4.24

Request: Bench note: what chromatographic logP did CCc1nc(C)c(-c2ccnc(Nc3ccc(F)c(OC)c3)n2)s1 [Example 863] show?
Response: 2.99

Request: Bench note: what chromatographic logP did Cc1nc(C)c(-c2nc(Nc3ccccc3)ncc2Br)s1 [Example 909] show?
Response: 3.3

Request: Bench note: what chromatographic logP did COc1ccc(Nc2nccc(-c3sc(C(C)C)nc3C)n2)cc1 [Example 821] show?
Response: 3.25

---

assay.comment: logP determination by retention times (calibration with alkan-2-ones)
experimental.setup: logP, values marked *: HPLC on reversed-phase C 18, 40° C., mobile phase 0.1% aqueous formic acid and acetonitrile, linear gradient 10% to 95% acetonitrile
Criterion: chromatographic logP meeting or surpassing 2. Met: Y. Not met: N.

| compound | assigned.category |
| --- | --- |
| Cc1nc(C(C)C)sc1-c1ccnc(Nc2ccc(N3CCCC3=O)cc2)n1 | Y |

Request: Identify whether the reported chromatographic logP of the following compound is 2 or greater: CC(=O)c1ccc(Nc2nccc(-c3sc(NCC4CCCO4)nc3C)n2)cc1 (stereo not shown)
Response: N

Request: Identify whether the reported chromatographic logP of the following compound is 2 or greater: `COCCCNc1nc(C)c(-c2ccnc(Nc3cccc(OC)c3)n2)s1`
Response: N

Request: Identify whether the reported chromatographic logP of the following compound is 2 or greater: `COc1cc(Nc2ncc(Br)c(-c3sc(C)nc3C)n2)cc(OC)c1OC`
Response: Y

Request: Identify whether the reported chromatographic logP of the following compound is 2 or greater: `COCCOc1nc(C)c(-c2ccnc(Nc3cc(OC)c(OC)c(OC)c3)n2)s1`
Response: Y

Request: Identify whether the reported chromatographic logP of the following compound is 2 or greater: `CC(=O)c1ccc(Nc2nccc(-c3sc(C(C)(C)C)nc3C)n2)cc1`
Response: Y

---

assay.comment: logP determination by retention times (calibration with alkan-2-ones)
experimental.setup: logP, values marked *: HPLC on reversed-phase C 18, 40° C., mobile phase 0.1% aqueous formic acid and acetonitrile, linear gradient 10% to 95% acetonitrile
measurement.label: chromatographic logP
Number only, please.

Here's what some known entries look like.
| compound | measurement.label | value.observed |
| --- | --- | --- |
| COCCOc1nc(C)c(-c2ccnc(Nc3ccc(OC)nc3)n2)s1 [Example 915] | chromatographic logP | 2.34 |
| COCCNc1nc(C)c(-c2ccnc(Nc3ccc(O)cc3)n2)s1 [Example 808] | chromatographic logP | 1.22 |
| CCc1nc(C)c(-c2ccnc(Nc3ccc(C(=O)OCCOC)cc3)n2)s1 [Example 881] | chromatographic logP | 2.91 |
| COCCCNc1nc(C)c(-c2ccnc(Nc3cccc(N4CCCC4=O)c3)n2)s1 [Example 861] | chromatographic logP | 1.62 |
| COCCNc1nc(C)c(-c2ccnc(Nc3ccc(C)c(C)c3)n2)s1 [Example 896] | chromatographic logP | 2.08 |

Request: Bench note: what chromatographic logP did COCCCNc1nc(C)c(-c2ccnc(Nc3ccc(F)cc3)n2)s1 [Example 851] show?
Response: 1.92

Request: Bench note: what chromatographic logP did COCCCNc1nc(C)c(-c2ccnc(Nc3ccc(N4CCCC4=O)cc3)n2)s1 [Example 856] show?
Response: 1.57

Request: Bench note: what chromatographic logP did CCc1nc(C)c(-c2nc(Nc3ccc(Cl)cc3)ncc2Cl)s1 [Example 877] show?
Response: 4.48

Request: Bench note: what chromatographic logP did COCCNc1nc(C)c(-c2ccnc(Nc3ccc(Cl)cc3)n2)s1 [Example 898] show?
Response: 2.24

Request: Bench note: what chromatographic logP did COCCNc1nc(C)c(-c2ccnc(Nc3ccc4c(c3)C(=O)OC4)n2)s1 [Example 890] show?
Response: 1.53
